// reported Kinetics koff for each item listed
# TESTED_SYSTEM: IGF2 (Homo sapiens, UniProt P01344)
# Sequence (P01344 25-91): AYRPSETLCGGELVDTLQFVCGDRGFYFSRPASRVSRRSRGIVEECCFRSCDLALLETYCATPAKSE
# ASSAY_PROCEDURE: SPR (Biacore T200) of recombinant IGF2R domain 11 mutants on immobilised biotinylated IGF2
# Assay type: binding
# Set-up: purchased GroPep
# STATED_CONDITIONS: Table 1; 25° C., HBS-EP pH 7.4
ASSAY_METRIC: Kinetics koff (s⁻¹)

- MOLECULE: "P1599G: domain 11 FG loop mutant P1599G, AB5 background unless otherwise stated (protein) MKSNEHDDCQVTNPSTGHLFDLSSLSGRAGFTAAYAKGWGVYMSICGENENCPPGVGACFGQTRISVGKANKRLRYVDQVLQLVYKDGSPCGSKSGLSYKSVISFVCRPEAGPTNRPMLISLDKQTCTLFFSWHTPLACEQATECSV"
  UNIT_DESCRIPTOR: "s⁻¹"
  VALUE_MODIFIER: ">"
  RECORDED_NUMBER: 0.2
- MOLECULE: "K1601R: domain 11 AB5 background + FG loop K1601R (protein) MKSNEHDDCQVTNPSTGHLFDLSSLSGRAGFTAAYAKGWGVYMSICGENENCPPGVGACFGQTRISVGKANKRLRYVDQVLQLVYKDGSPCPSRSGLSYKSVISFVCRPEAGPTNRPMLISLDKQTCTLFFSWHTPLACEQATECSV"
  UNIT_DESCRIPTOR: "s⁻¹"
  VALUE_MODIFIER: "="
  RECORDED_NUMBER: 0.0251
